- Experiment Description: growth suppression of PTEN-deleted HCT116, pilot screen, cell-based, HCT116 clonal line, CellTiter-Glo (AID 824);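 further: 0% = 20 µM Hyamine control and 100% = vehicle cell control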
- Measurement Conditions: 60 h, at 10 µM, hits give low values
Inconclusive results are not listed. The source made the active and inactive calls.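 How the source made its calls: active means viability at or below 27.92% in each of two runs, the all-compound median minus 4 SD; inconclusive means no clear call, values can overlap the other calls; inactive means the rest.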
Observable: viability

[[record]]
compound = "Cc1c(C#N)c2ccccc2n1CCOc1ccccc1F"
reported = "68.5% (inactive)"

[[record]]
compound = "CC(=O)OC(/C(O)=C(\\C#N)c1nc2ccccc2[nH]1)c1ccccc1 (stereo not drawn)"
reported = "54.3% (inactive)"

[[record]]
compound = "CCN1CCN(C(c2cccs2)C(C)NC(=O)C(C)C)CC1 (stereo not drawn)"
reported = "92.2% (inactive)"

[[record]]
compound = "CCCCC(=O)Nc1ccc2c(c1)C(=O)NC2=O"
reported = "94.5% (inactive)"

[[record]]
compound = "O=C(COc1ccccc1)Nc1nnc(-c2ccc(Cl)s2)o1"
reported = "100% (inactive)"

[[record]]
compound = "CCOc1ccc(C(=O)Nn2cnnc2)cc1"
reported = "103% (inactive)"

[[record]]
compound = "CCN(CC)Cc1c(O)ccc2c(-c3ccccc3)cc(=O)oc12"
reported = "94.7% (inactive)"

[[record]]
compound = "Cc1c(C(=O)NCc2cccnc2)oc2ccccc12"
reported = "87% (inactive)"

[[record]]
compound = "Cc1cc(Nc2cccc(F)c2)n2ncnc2n1"
reported = "106% (inactive)"

[[record]]
compound = "O=C(Nc1ccccc1)C1CC(=O)N(C2CCCCC2)C1 (stereo not drawn)"
reported = "101% (inactive)"

[[record]]
compound = "O=C(CN1CCCCC1)Nc1nnc(-c2ccccc2)s1"
reported = "98.5% (inactive)"

[[record]]
compound = "O=C(Nc1nc2c(Cl)ccc(Cl)c2s1)c1ccco1"
reported = "85.2% (inactive)"

[[record]]
compound = "Cn1c(=O)n(C)c2cc(CN3C(=O)OC(C)(C)C3(C)O)ccc21 (stereo not drawn)"
reported = "95.2% (inactive)"

[[record]]
compound = "Cc1ccc(S(=O)(=O)N2CCC(C(=O)N[C@@H](C)C(=O)NC3CCCCC3)CC2)cc1"
reported = "99.8% (inactive)"

[[record]]
compound = "O=C(O)CC1SC(=Nc2ccccc2)N(c2ccccc2)C1=O (stereo not drawn)"
reported = "99.4% (inactive)"

[[record]]
compound = "O=C1c2oc3ccc(Cl)cc3c(=O)c2C(c2ccco2)N1CCN1CCOCC1 (stereo not drawn)"
reported = "90.4% (inactive)"

[[record]]
compound = "CCOC(=O)NCCc1ccc(OC)cc1"
reported = "95.8% (inactive)"

[[record]]
compound = "Cn1ccnc1SC(=O)N1c2ccccc2Sc2ccccc21"
reported = "91.4% (inactive)"

[[record]]
compound = "CCC(C)NC(=O)c1c(-c2cc(Cl)c(OC)c(Cl)c2)noc1C (stereo not drawn)"
reported = "93% (inactive)"

[[record]]
compound = "CN(CCNC(=O)C1(O)c2ccccc2NC(=O)N1c1ccccc1)Cc1ccccc1 (stereo not drawn)"
reported = "93.2% (inactive)"

[[record]]
compound = "Cc1ccc(Cl)cc1N1CCN(C(=O)COc2ccc(S(=O)(=O)NC(C)C)cc2)CC1"
reported = "54.8% (inactive)"

[[record]]
compound = "Cc1cc(Nc2ccc(C(C)C)cc2)n2ncnc2n1"
reported = "85.2% (inactive)"

[[record]]
compound = "O=C(CCNS(=O)(=O)c1cccc2nsnc12)NC1CCN(Cc2ccccc2)CC1"
reported = "89% (inactive)"

[[record]]
compound = "N#CC1=C2SCN(c3ccccc3)CN2C(=O)CC1c1c(Cl)cccc1Cl (stereo not drawn)"
reported = "93% (inactive)"

[[record]]
compound = "CC1CC(C)CN(CCCNC(=O)CNC(=O)Cn2ccc3ccccc3c2=O)C1 (stereo not drawn)"
reported = "98.9% (inactive)"

[[record]]
compound = "CCc1ccc(NC(=O)c2cnc3n(c2=O)CCS3)cc1"
reported = "85.9% (inactive)"

[[record]]
compound = "Cc1[nH]c2ccccc2c1Cc1nnc(SCC(N)=O)o1"
reported = "102% (inactive)"

[[record]]
compound = "CCOC(=O)CSc1nc2ccccc2c(=O)[nH]1"
reported = "100% (inactive)"

[[record]]
compound = "Cc1cc(C(=O)NCC2CCCO2)n(-c2ccccc2)n1 (stereo not drawn)"
reported = "103% (inactive)"

[[record]]
compound = "CCN(CC)CCCNC(=O)Cn1cc2c(n1)CCC(C)C2 (stereo not drawn)"
reported = "98.1% (inactive)"

[[record]]
compound = "CCN(CC)CC(=O)Nc1cc(C)c2c(=O)oc3ccccc3c2n1"
reported = "91.6% (inactive)"

[[record]]
compound = "CC(=O)NC(O)C(=O)c1ccccc1 (stereo not drawn)"
reported = "89.6% (inactive)"

[[record]]
compound = "O=C(NC12CC3CC(CC(C3)C1)C2)c1cccnc1"
reported = "97.7% (inactive)"

[[record]]
compound = "CC(=O)NCCn1c(C)cc2ccccc21"
reported = "105% (inactive)"

[[record]]
compound = "Cc1nn(C)c(C)c1S(=O)(=O)N(CC(=O)NCc1cccs1)c1ccc(C(C)C)cc1"
reported = "87.5% (inactive)"

[[record]]
compound = "COC(=O)c1ccccc1Nc1cc(C)nc2nc(C)nn12"
reported = "115% (inactive)"

[[record]]
compound = "O=C(O)CCC(=O)c1ccc2c(c1)OCCO2"
reported = "103% (inactive)"

[[record]]
compound = "Cc1ccccc1Cn1c(CN2CCN(C(=O)c3ccco3)CC2)nc2c1c(=O)n(C)c(=O)n2C"
reported = "95.7% (inactive)"

[[record]]
compound = "O=C(O)c1ccccc1C(=O)NCc1ccccc1"
reported = "100% (inactive)"

[[record]]
compound = "COC(=O)c1ccccc1NC(=O)CS(=O)(=O)Cc1nc(-c2ccc(C)cc2)oc1C"
reported = "87.8% (inactive)"

[[record]]
compound = "COc1ccc(C2CC(C(F)(F)F)n3ncc(C(=O)O)c3N2)cc1OC (stereo not drawn)"
reported = "97.9% (inactive)"

[[record]]
compound = "COC(=O)Cn1c(CCC(=O)O)ccc1-c1ccccc1"
reported = "103% (inactive)"

[[record]]
compound = "CCOC(=O)N1CCN(c2c(Nc3ccc4c(c3)OCCO4)c(=O)c2=O)CC1"
reported = "105% (inactive)"

[[record]]
compound = "COc1cc2c(cc1OC)C1=C(C#N)CN(C3CCCCC3)CN1CC2"
reported = "81.1% (inactive)"

[[record]]
compound = "Cn1c(SCc2nc(-c3ccc(Cl)cc3)no2)nnc1-c1ccco1"
reported = "85.6% (inactive)"

[[record]]
compound = "N#CC1=C2SCN(c3ccc(F)cc3)CN2C(=O)CC1c1cccc(F)c1 (stereo not drawn)"
reported = "96.7% (inactive)"

[[record]]
compound = "O=C(CSc1nc2cc(Cl)ccc2s1)c1ccco1"
reported = "93.8% (inactive)"

[[record]]
compound = "CCOc1cc(CN2CCSCC2)ccc1O"
reported = "101% (inactive)"


Where do the numbers come from? From PubChem BioAssay.
